Quick reference for ddG among some binders
SYSTEM_TESTED: T1, Kap104p, P38217
T1 chain: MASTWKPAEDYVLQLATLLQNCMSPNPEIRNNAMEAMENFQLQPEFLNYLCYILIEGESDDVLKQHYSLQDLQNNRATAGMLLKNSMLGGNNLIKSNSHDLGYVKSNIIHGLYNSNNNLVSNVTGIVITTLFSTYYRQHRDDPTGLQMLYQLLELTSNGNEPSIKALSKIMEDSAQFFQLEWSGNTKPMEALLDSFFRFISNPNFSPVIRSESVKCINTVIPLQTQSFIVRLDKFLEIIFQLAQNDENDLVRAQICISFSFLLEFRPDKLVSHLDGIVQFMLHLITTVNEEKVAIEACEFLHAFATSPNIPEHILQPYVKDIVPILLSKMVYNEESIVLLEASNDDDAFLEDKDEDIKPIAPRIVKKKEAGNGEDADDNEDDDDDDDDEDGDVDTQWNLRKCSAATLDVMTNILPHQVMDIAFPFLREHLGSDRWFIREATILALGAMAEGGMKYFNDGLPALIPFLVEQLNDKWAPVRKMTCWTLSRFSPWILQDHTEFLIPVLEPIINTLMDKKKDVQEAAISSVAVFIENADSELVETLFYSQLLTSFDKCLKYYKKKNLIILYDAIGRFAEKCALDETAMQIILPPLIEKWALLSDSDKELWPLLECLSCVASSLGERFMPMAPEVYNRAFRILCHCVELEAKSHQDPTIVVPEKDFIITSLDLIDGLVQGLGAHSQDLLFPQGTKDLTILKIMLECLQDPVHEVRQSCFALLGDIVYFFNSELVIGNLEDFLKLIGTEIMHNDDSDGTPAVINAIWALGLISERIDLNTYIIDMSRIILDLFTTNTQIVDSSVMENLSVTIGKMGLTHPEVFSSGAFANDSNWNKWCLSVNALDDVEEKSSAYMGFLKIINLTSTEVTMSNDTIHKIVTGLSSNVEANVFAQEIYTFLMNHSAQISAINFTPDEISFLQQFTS
ASSAY_NAME: ITC
ASSAY_CONTEXT: chain shown with the change

# BINDER, ddG [kcal/mol]
rows = [
    ("RDRNDRDRDYNHRSGGNHRRNGRGGAAAAARRNNGYHPYNR (domain or fragment, S. cerevisiae, UniProt Q99383 494-534, looked up, Hrp1p NLS, residues 494-534; source: E. coli BL21(DE3), purified (amylose resin, cation exchange)) [MBP–Hrp1p NLS 519RGGYN523/AAAAA]", -0.4),
    ("RDRNDRDRDYNHRSGGNHAAAARGGRGGYNRRNNGYHPYNR (domain or fragment, S. cerevisiae, UniProt Q99383 494-534, looked up, Hrp1p NLS, residues 494-534; source: E. coli BL21(DE3), purified (amylose resin, cation exchange)) [MBP–Hrp1p NLS 512RRNG515/AAAA]", 0.2),
    ("RDRNDRDRDYNHAAAANHRRNGRGGRGGYNRRNNGYHPYNR (domain or fragment, S. cerevisiae, UniProt Q99383 494-534, looked up, Hrp1p NLS, residues 494-534; source: E. coli BL21(DE3), purified (amylose resin, cation exchange)) [MBP–Hrp1p NLS 506RSGG509/AAAA]", 0.02),
    ("RDRNDRDRDYNHRSGGNHRRNGAAARGGYNRRNNGYHPYNR (domain or fragment, S. cerevisiae, UniProt Q99383 494-534, looked up, Hrp1p NLS, residues 494-534; source: E. coli BL21(DE3), purified (amylose resin, cation exchange)) [MBP–Hrp1p NLS 516RGG518/AAA]", -0.3),
]
